Experiment summary: Dynamic light scattering, colloidal aggregation
Format: physicochemical
Study conditions: measured at 10 µM, 1 µM and 100 nM; water, 25 °C; read-out: DLS maximum soluble concentration at which no aggregates are observed
Outcome measure: solubility (µM)
Just the number please, in µM, no unit attached.

The following molecules have reported results that may help.
INSERT INTO assay_data (molecule, outcome_measure, meas_value) VALUES
  ('C=CC(=O)Nc1cc(-n2c(=O)ccc3cnc4ccc(-c5cccc(NS(C)(=O)=O)c5)cc4c32)ccc1C', 'solubility', 1),
  ('Cc1ccc(-n2c(=O)ccc3cnc4ccc(-c5ccc(NS(C)(=O)=O)cc5)cc4c32)cc1NCC=CC#N (mixture of isomers)', 'solubility', 0.1),
  ('C=CC(=O)Nc1cccc(-n2c(=O)ccc3cnc4ccc(-c5ccc(NS(C)(=O)=O)cc5)cc4c32)c1', 'solubility', 1),
  ('C=CC(=O)Nc1cc(-n2c(=O)ccc3cnc4ccc(-c5ccc(NS(C)(=O)=O)cc5)cc4c32)ccc1OC', 'solubility', 1),
  ('CC=CC(=O)Nc1cc(-n2c(=O)ccc3cnc4ccc(-c5ccc(NS(C)(=O)=O)cc5)cc4c32)ccc1C', 'solubility', 0.1);

Task: Answer with the recorded solubility of CC(C)=CC(=O)Nc1cc(-n2c(=O)ccc3cnc4ccc(-c5ccc(NS(C)(=O)=O)cc5)cc4c32)ccc1C only.
Output: 0.1
